Entries annotated with measured OD450 (参考630nm)
Target: 肺炎支原体天然抗原(购自Microbix) (Mycoplasma pneumoniae)
Assay: indirect ELISA, antigen coated at 2 ug/ml, antibody 15 ng/ml
Report the figure in OD without appending any unit label.

Recorded results for 2 binders are shown here.
Anti-MP-22A9mut3 (antibody, mouse IgG1, kappa, V domains shown) VH: QAYLQQSGAELVRSGASVKMSCKASGYTFTTYNMHWVKQTPGQGLEWIGYVHPGYGITYYSQKFKGKATITADTSSSTAYMLLSSLTSEDSAVYFCTRSYYGYSYWFFDVWGAGTTVTVSS VL: NIVMTQSPKSVSMSVGERVTLNCKASENVGSYVAWYQQKPDRSPKLLIHGASNRYTGVPDRFTGSGSTTDFTLTISSVQAEDLADYHCGQTYNYPYTFGGGTKLEIKR
2.16
Anti-MP-22A9mut2 (antibody, mouse IgG1, kappa, V domains shown) VH: QAYLQQSGAELVRSGASVKMSCKASGYTFTTYNMHWVKQTPGQGLEWIGYVHPGYGITYYSQKFKGKATLTADTSSSTAYMLLSSLTSEDSAVYFCTRSYYGYSYWFFDVWGAGTTVTVSS VL: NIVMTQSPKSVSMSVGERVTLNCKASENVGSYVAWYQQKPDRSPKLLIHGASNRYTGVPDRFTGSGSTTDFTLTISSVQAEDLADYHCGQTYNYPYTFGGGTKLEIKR
2.23

# input for lookup
Exercise: State, in one line, measured OD450 (参考630nm) of Anti-MP-22A9mut1 (antibody, mouse IgG1, kappa, V domains shown) VH: QAYLQQSGAELVRSGASVKMSCKASGYTFTTYNMHWVKQTPGQGLEWIGYVHPGYGITYYSQKFKGKATLTADTSSSTAYMILSSLTSEDSAVYFCTRSYYGYSYWFFDVWGAGTTVTVSS VL: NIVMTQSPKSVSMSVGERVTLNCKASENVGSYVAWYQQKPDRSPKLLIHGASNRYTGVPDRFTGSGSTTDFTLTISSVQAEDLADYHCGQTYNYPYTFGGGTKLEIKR
Solution: 1.92
